Provenance of the data: patent US20170145113A1

Target: T1, His-tagged human HtrA1 protease domain (human, UniProt Q92743 161-367)
T1 construct: His-tagged protease domain; also called huHtrA1-PD-His; huHtrA1-PD
T1 sequence (Q92743 other isoform, or with tags, fused parts or gaps limits assumed): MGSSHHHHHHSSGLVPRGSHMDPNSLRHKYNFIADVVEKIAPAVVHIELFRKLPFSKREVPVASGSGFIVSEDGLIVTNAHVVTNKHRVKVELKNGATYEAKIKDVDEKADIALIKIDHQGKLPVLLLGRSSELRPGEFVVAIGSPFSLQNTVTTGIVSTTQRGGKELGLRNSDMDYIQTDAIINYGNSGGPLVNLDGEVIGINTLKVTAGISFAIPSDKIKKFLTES
Test: SPR (BIACORE T200), huHtrA1-PD-His captured by anti-His, Fab injected
So basically: koff at 0.0002 s⁻¹ or higher? That is T. Lower than 0.0002 s⁻¹? That is F.

Consider the following illustrative entries.
| binder | category |
| --- | --- |
| h15H6.v2 variant LC3 (LC-N31E) Fab (Fab, V domains shown, Fab-Flag tag fusion from 293T cells) VH: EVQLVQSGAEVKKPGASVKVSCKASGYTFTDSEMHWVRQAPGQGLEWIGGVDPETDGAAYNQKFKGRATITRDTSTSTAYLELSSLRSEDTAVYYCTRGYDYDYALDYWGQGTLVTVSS VL: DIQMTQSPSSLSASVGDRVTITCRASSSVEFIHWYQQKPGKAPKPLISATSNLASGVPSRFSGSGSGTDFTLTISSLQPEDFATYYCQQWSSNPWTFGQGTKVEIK | F |
| h15H6.v2 variant LC4 (LC-N53H) Fab (Fab, V domains shown, Fab-Flag tag fusion from 293T cells) VH: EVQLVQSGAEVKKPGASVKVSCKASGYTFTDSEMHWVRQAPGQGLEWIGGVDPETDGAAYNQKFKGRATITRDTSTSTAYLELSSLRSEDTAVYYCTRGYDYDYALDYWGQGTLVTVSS VL: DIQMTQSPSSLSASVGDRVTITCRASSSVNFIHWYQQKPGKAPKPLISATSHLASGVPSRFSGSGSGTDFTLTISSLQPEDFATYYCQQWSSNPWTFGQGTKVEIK | T |

Request: Could you tell me if the measured koff of h15H6.v2 variant LC7 (LC-S92Y) Fab (Fab, V domains shown, Fab-Flag tag fusion from 293T cells) VH: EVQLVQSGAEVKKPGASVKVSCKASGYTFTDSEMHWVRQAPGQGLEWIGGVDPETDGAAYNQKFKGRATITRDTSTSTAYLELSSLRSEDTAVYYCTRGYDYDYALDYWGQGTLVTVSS VL: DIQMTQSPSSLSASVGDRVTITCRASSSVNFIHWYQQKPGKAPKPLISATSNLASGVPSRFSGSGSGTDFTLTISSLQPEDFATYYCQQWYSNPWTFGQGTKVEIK reaches 0.0002 s⁻¹ or more?
Response: F

Request: Param item: h15H6.v2 variant LC6 (LC-Q89H) Fab (Fab, V domains shown, Fab-Flag tag fusion from 293T cells) VH: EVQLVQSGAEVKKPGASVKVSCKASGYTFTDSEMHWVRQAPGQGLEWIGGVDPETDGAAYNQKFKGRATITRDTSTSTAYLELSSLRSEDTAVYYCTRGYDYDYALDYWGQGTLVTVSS VL: DIQMTQSPSSLSASVGDRVTITCRASSSVNFIHWYQQKPGKAPKPLISATSNLASGVPSRFSGSGSGTDFTLTISSLQPEDFATYYCHQWSSNPWTFGQGTKVEIK
Response: T

Request: Record: h15H6.v2 variant HC7 (HC-A58F) Fab (Fab, V domains shown, Fab-Flag tag fusion from 293T cells) VH: EVQLVQSGAEVKKPGASVKVSCKASGYTFTDSEMHWVRQAPGQGLEWIGGVDPETDGAFYNQKFKGRATITRDTSTSTAYLELSSLRSEDTAVYYCTRGYDYDYALDYWGQGTLVTVSS VL: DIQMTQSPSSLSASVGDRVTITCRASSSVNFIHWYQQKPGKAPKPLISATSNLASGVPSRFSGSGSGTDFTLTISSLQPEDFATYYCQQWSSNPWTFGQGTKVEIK
Response: F

Request: What would you report for h15H6.v2 variant LC2 (LC-N31H) Fab (Fab, V domains shown, Fab-Flag tag fusion from 293T cells) VH: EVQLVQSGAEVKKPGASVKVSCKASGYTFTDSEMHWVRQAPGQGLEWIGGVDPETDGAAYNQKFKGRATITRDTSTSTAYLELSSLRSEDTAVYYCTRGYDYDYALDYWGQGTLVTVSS VL: DIQMTQSPSSLSASVGDRVTITCRASSSVHFIHWYQQKPGKAPKPLISATSNLASGVPSRFSGSGSGTDFTLTISSLQPEDFATYYCQQWSSNPWTFGQGTKVEIK ?
Response: F

Request: h15H6.v2 variant HC9 (HC-A100aP) Fab (Fab, V domains shown, Fab-Flag tag fusion from 293T cells) VH: EVQLVQSGAEVKKPGASVKVSCKASGYTFTDSEMHWVRQAPGQGLEWIGGVDPETDGAAYNQKFKGRATITRDTSTSTAYLELSSLRSEDTAVYYCTRGYDYDYPLDYWGQGTLVTVSS VL: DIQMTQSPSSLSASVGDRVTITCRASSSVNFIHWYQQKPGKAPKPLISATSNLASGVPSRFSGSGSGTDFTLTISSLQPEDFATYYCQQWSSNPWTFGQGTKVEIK , same question.
Response: T

Request: Also h15H6.v2 variant HC8 (HC-Y100I) Fab (Fab, V domains shown, Fab-Flag tag fusion from 293T cells) VH: EVQLVQSGAEVKKPGASVKVSCKASGYTFTDSEMHWVRQAPGQGLEWIGGVDPETDGAAYNQKFKGRATITRDTSTSTAYLELSSLRSEDTAVYYCTRGYDYDIALDYWGQGTLVTVSS VL: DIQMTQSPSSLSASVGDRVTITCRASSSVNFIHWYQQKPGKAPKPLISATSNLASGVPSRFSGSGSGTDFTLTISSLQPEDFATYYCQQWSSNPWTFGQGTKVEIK ?
Response: T

Request: Queued: h15H6.v2 variant LC8 (LC-S92K) Fab (Fab, V domains shown, Fab-Flag tag fusion from 293T cells) VH: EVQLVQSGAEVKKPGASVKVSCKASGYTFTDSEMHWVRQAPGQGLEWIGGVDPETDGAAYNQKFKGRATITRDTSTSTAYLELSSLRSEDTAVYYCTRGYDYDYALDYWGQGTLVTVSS VL: DIQMTQSPSSLSASVGDRVTITCRASSSVNFIHWYQQKPGKAPKPLISATSNLASGVPSRFSGSGSGTDFTLTISSLQPEDFATYYCQQWKSNPWTFGQGTKVEIK
Response: T

Request: Now try h15H6.v2 variant HC6 (HC-E53A) Fab (Fab, V domains shown, Fab-Flag tag fusion from 293T cells) VH: EVQLVQSGAEVKKPGASVKVSCKASGYTFTDSEMHWVRQAPGQGLEWIGGVDPATDGAAYNQKFKGRATITRDTSTSTAYLELSSLRSEDTAVYYCTRGYDYDYALDYWGQGTLVTVSS VL: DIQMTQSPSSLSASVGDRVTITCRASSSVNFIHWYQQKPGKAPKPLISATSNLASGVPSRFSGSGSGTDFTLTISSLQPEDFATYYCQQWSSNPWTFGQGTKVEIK .
Response: T
